# System: SNB-19 CNS
# PROTOCOL DESCRIPTION: NCI-60 one-dose screen, 48 h
# STATED CONDITIONS: 10 µM unless noted
This is part of a sample that, as a whole, favours compounds with a hit. Of some 83,000 tested, about 20% had one in any assay. Activity calls are given as the source filed them. Rule for the calls: active = growth percent below 10; inactive = the rest.
Reply using exactly one outcome from active, inactive

The following compounds have reported results that may help.
• O=C1CN(CCN2CC(=O)N(Cc3ccccc3)C(=O)C2)CC(=O)N1Cc1ccccc1 = inactive
• CCOC(=O)NCCc1ccccc1 = inactive
• COc1cc(C(=O)/C=C/c2ccc(OCCCCCC[P+](c3ccccc3)(c3ccccc3)c3ccccc3)cc2)cc(OC)c1OC = active
• c1cc(-c2nnc(SSc3ncnc4nc[nH]c34)o2)ccn1 = inactive
• COc1cc(/C=C/c2ccccc2)cc(OC)c1 = inactive

Exercise: What is the recorded call for this compound in the test? Cc1ccc2c(-c3cc(-c4ccccc4)nc(N)c3C#N)cc(=O)oc2c1
Solution: inactive

Exercise: Also Cn1cc(-c2cc3ncnc(Nc4ccc(CC(=O)Nc5cc(C(C)(C)C)on5)cc4)c3s2)cn1 ?
Solution: inactive

Exercise: Also COc1ccc(-c2nnc(COc3ccc(Cl)cc3Cl)o2)cc1OC ?
Solution: inactive

Exercise: Also COc1cc(C(=O)c2cc(C)c3[nH]c4ccc(O)cc4c3c2C)cc(OC)c1OC ?
Solution: inactive

Exercise: Also CCCCCCCCCCCCCCCCCCOc1ccc(CC(=O)OCC[N+]2(C)CCCCC2)cc1 ?
Solution: inactive

* * *

# System: SNB-19 CNS
# PROTOCOL DESCRIPTION: NCI-60 one-dose screen, 48 h (100 = growth as untreated, 0 = no growth, -100 = all killed)
# STATED CONDITIONS: 10 µM unless noted
About 83,000 compounds went through this panel and 20% of them were active in at least one assay; those are over-represented in the sample as a whole.
PROPERTY NAME: growth (%)
The reply should be a number in %, with the unit left off.

Reference set, count: 3
- CS(=O)(=O)Nc1cc(-c2ccc3ncnc(Nc4cccc(Cl)c4F)c3c2)cnc1Cl: 46.4
- COc1nc2ccccc2cc1-c1nc2c(cnn2-c2ccccc2)c(=O)[nH]1: 42.1
- CC1(C)C2CC1C1(/C=N\Nc3ccccc3)C(C2)C(C#N)(C#N)C1(C#N)C#N (stereo not given): 96.2

Exercise: What does the data say about its growth? Entry: N#CC1=C(N)Oc2c(sc3c(Br)cccc23)C1c1ccc(Br)cc1 (stereo not given)
Solution: 52.6

Exercise: Also COc1cc(C(=O)c2cnc(-c3cccc4[nH]ccc34)[nH]2)cc(OC)c1OC ?
Solution: 40.3

* * *

# System: K-562 leukemia
# PROTOCOL DESCRIPTION: NCI-60 one-dose screen, 48 h (100 = growth as untreated, 0 = no growth, -100 = all killed)
# STATED CONDITIONS: 10 µM unless noted
# Experimental: Cells are grown in 96 well plates and exposed to the test compound for 48 hours. Compounds are tested at a single concentration, which is 10^-5 M for most compounds. The reported endpoint is percent growth (GI% or GIPRCNT), where numbers from 0 - 100% represent growth inhibition, and numbers from -100% - 0 represent cell death. For example, a value of 40 represents 60% growth inhibition. A value of 0 means no net growth occurred over the course of the experiment. […]
About 83,000 compounds went through this panel and 20% of them were active in at least one assay; those are over-represented in the sample as a whole.
Entries annotated with measured growth
The reply should be a number in %, with the unit left off.

Reference set, count: 6
• CCN1C(=O)N(CC)C2Nn3c(s/c(=C4\C(=O)Nc5ccccc54)c3=O)=NC21 (stereo not given) = 20.2
• c1ccc(Nc2cc(-c3cccnc3)[nH]n2)cc1 = 101
• CNC(=O)c1cc(-n2ccc3cc(NC(=O)c4ccc(N5CCOCC5)c(C(F)(F)F)c4)ccc32)ccn1 = 25.5
• CCCCN(C)N=Nc1ccc(C(N)=O)cc1 = 116
• CC1(C)C2CC1C1(/C=N/NC(N)=S)C(C2)C(C#N)(C#N)C1(C#N)C#N (stereo not given) = 13.6
• CN1C(=O)N(C)C2Nn3c(s/c(=C\c4ccccc4)c3=O)=NC21 (stereo not given) = 92.8

Then this compound:
Exercise: What does the data say about its growth? Entry: Cc1cc(O)c(C2=NN(c3ccc(S(N)(=O)=O)cc3)C(c3ccccc3O)C2)cc1Cl (stereo not given)
Solution: -36.6

* * *

Entries annotated with measured growth
# Tested on: EKVX NSCLC
# PROTOCOL DESCRIPTION: NCI-60 one-dose screen, 48 h (100 = growth as untreated, 0 = no growth, -100 = all killed)
# STATED CONDITIONS: 10 µM unless noted
About 83,000 compounds went through this panel and 20% of them were active in at least one assay; those are over-represented in the sample as a whole. Calls of active or inactive are those of the source. How the source made its calls: active means growth percent below 10; inactive means the rest.

Reference set, count: 5
* CCc1cccc2c1S/C(=C/c1ccc(OC)cc1)C2=O | 93.9% (inactive)
* CCOc1cccc(NC2=C(Br)C(=O)C(C)=C(C)C2=O)c1 | 92.4% (inactive)
* O=C(Nc1ccc(Cl)cc1F)c1cc(Cl)ccc1O | 5.1% (active)
* CCOC(=O)Nc1ccc(-c2nc(-c3cccc(OCCN4CCOCC4)c3)c(-c3ccnc(Br)c3)[nH]2)cc1 | 61.1% (inactive)
* O=c1c2cc(C(F)(F)F)ccc2sc2c(NCCCNCCO)nc3ccccc3c12 | 67.3% (inactive)

Exercise: What does the data say about its growth? Entry: CC1CN(C2CCCCC2)C(=S)N(c2ccccc2)C1=O (centres undefined)
Solution: 101% (inactive)

Exercise: Also CC(=O)OC[C@H]1OC(Sc2sc(C(=O)c3ccc(Cl)cc3)c(N)c2-c2nc3ccccc3s2)[C@H](OC(C)=O)[C@@H](OC(C)=O)[C@@H]1OC(C)=O (some centres undefined) ?
Solution: 80.4% (inactive)

Exercise: Also CCCCCCCNC(=O)CCCNc1ncnc2c1ncn2-c1cccc(C(C)O)c1 (centres undefined) ?
Solution: 76.4% (inactive)

Exercise: Also CCCCCCNC(=O)Oc1ccc(/C(=C(\C)c2ccc(Cl)cc2)c2ccc(OCCN3CCCCC3)cc2)cc1 ?
Solution: 52.8% (inactive)

* * *

# System: OVCAR-5 ovarian
# PROTOCOL DESCRIPTION: NCI-60 one-dose screen, 48 h (100 = growth as untreated, 0 = no growth, -100 = all killed)
# STATED CONDITIONS: 10 µM unless noted
The panel holds about 83,000 compounds, 20% with a hit somewhere; the sample as a whole holds those more often.
Entries annotated with measured growth
The reply should be a number in %, with the unit left off.

Reference set, count: 5
• CN1CCN(c2ccc(-c3cc4c(Nc5ccc(F)c(Cl)c5)ncnn4c3)cc2)CC1 = 95.2
• CCOC(=O)c1cnn2c3ccccc3n(S(=O)(=O)c3ccc(OC)cc3)c12 = 42.5
• Cc1c(C(=O)NCCN2CCOCC2)cn2ncnc(Oc3ccc(NC(=O)Nc4ccc(Cl)c(C(F)(F)F)c4)cc3)c12 = 53.3
• COc1ccc(CN2c3ccccc3Sc3ccccc32)c(F)c1 = 50.2
• O=C(Nc1ccc(-c2nc(-c3cccc(OCCN4CCOCC4)c3)c(-c3ccnc(Br)c3)[nH]2)cc1)c1ccccc1 = 35.4

Exercise: What does the data say about its growth? Entry: Cc1ccc2sc3c(NCCN)nc4ccccc4c3c(=O)c2c1
Solution: 97

* * *

# Tested on: TK-10 renal
# PROTOCOL DESCRIPTION: NCI-60 one-dose screen, 48 h
# STATED CONDITIONS: 10 µM unless noted
The panel holds about 83,000 compounds, 20% with a hit somewhere; the sample as a whole holds those more often. Active and inactive are the calls of the source. How the source made its calls: active means growth percent below 10; inactive means the rest.
Reply using exactly one outcome from active, inactive

The following compounds have reported results that may help.
- Cc1nn(-c2ccccc2)c(-n2ccnc2)c1/C=N/Nc1nc(-c2ccc(Cl)c(Cl)c2)cs1: active
- CCCCCCCCCCCCCCCCCCOc1ccccc1CC(=O)OCC[N+](CC)(CC)CC: inactive
- CCCCn1c(=O)c(-c2cc(-c3ccc(Cl)cc3)nc(-c3ccc(Cl)cc3)c2)cc2ccc(Cl)cc21: inactive

Exercise: What is the recorded call for this compound in the test? CCOc1ccc2nc(SCc3nc4n(n3)S(=O)(=O)c3ccccc3N4C)sc2c1
Solution: active

Exercise: Also COc1ccc2sc3c(NCCCNCCO)nc4ccccc4c3c(=O)c2c1 ?
Solution: inactive

Exercise: Also CCOC(=O)c1[nH]c(C)c(C(=O)OCc2ccccc2C#N)c1C ?
Solution: inactive

Exercise: Also NCCCNc1nc2ccc(Cl)cc2c2c(=O)c3cc(F)ccc3sc12 ?
Solution: inactive

* * *

# Test system: SK-MEL-28 melanoma
# PROTOCOL DESCRIPTION: NCI-60 one-dose screen, 48 h (100 = growth as untreated, 0 = no growth, -100 = all killed)
# STATED CONDITIONS: 10 µM unless noted
Compounds without any hit were thinned out: in the full panel of roughly 83,000, 20% have a hit.
Entries annotated with measured growth
The reply should be a number in %, with the unit left off.

Reference set, count: 4
- CCc1ccc2nc(NC(=O)Cc3csc(NC(=O)c4ccco4)n3)sc2c1: 90.9
- NCCNc1nc2ccccc2c2c(=O)c3cccc(F)c3sc12: 106
- COC(=O)c1ccc2[nH]c(O)c(C(=Nc3ccc(N(C)C(=O)CN4CCN(C)CC4)cc3)c3ccccc3)c2c1: 29.3
- COc1cc2cc(Oc3ccc(NC(=O)Nc4ccc(Cl)c(Cl)c4)cc3)c(C)nc2cc1OCCN1CCOCC1: 101

Exercise: What growth appears in the records for this compound with SK-MEL-28 melanoma? CC([C@H]1CCC2C3CCC4C(=O)C(NC=O)=CC[C@]4(C)C3CC[C@@]21C)N(C)C (some centres not stated)
Solution: -70.1

Exercise: Also C=C1CC[C@H](C(C)C)[C@@H]2[C@H]1[C@H]1CC(=C)[C@@H](O)CC[C@@](C)(O)[C@@H]2O1 ?
Solution: 105

Exercise: Also CC/C=C\C[C@@H]1C/C=C2/C(=O)C=C[C@H]2C/C=C\CCCC(=O)O1 ?
Solution: -75.6

Exercise: Also COc1ccc2nc(NC(=O)c3cccnc3Nc3ccc(S(N)(=O)=O)cc3)sc2c1 ?
Solution: 116

Exercise: Also Cc1ccc(NC2=C(Cl)C(=O)c3nc(C)ccc3C2=O)cc1 ?
Solution: -79

Exercise: Also CCN(CC)CCNC(=O)c1cn2ncnc(Oc3ccc(NC(=O)Nc4ccc(Cl)c(C(F)(F)F)c4)cc3)c2c1C ?
Solution: -89.9

Exercise: Also Cc1nc(S(=O)(=O)c2ccccc2)c(S(=O)(=O)Cc2ccc([N+](=O)[O-])cc2)o1 ?
Solution: 103

Exercise: Also O=C(O)c1cn(C2CC2)c2cc(N3CCN(C(=O)Nc4nc(-c5ccc(Cl)cc5)cs4)CC3)c(F)cc2c1=O ?
Solution: 39.4

Exercise: Also CCCCn1c(=O)c(-c2cc(-c3ccc(Cl)cc3)nc(-c3ccc(Cl)cc3)c2)cc2ccc(Cl)cc21 ?
Solution: 106

Exercise: Also CCOC(=O)CC1C(COC(=O)NC)OC(n2cnc3c(NC(=O)Nc4ccccc4)ncnc32)C1O[Si](C)(C)C(C)(C)C (configuration not stated) ?
Solution: 71.9

Exercise: Also Cc1cc2[nH]c(=O)c3c4ncccc4cn3c2cc1C ?
Solution: 95.1

Exercise: Also O=C(O)C(c1ccccc1)N1C(=O)CSC1=S (configuration not stated) ?
Solution: 99.5

Exercise: Also CCOC(=O)C1=C(N)Oc2c(sc3c(CC)cccc23)C1c1ccc(F)cc1 (configuration not stated) ?
Solution: 53.8
